Measured values drawn from patent US9796984B2 for this set.

Reported Activity is given for each of the following compounds.
Target: Bovine arginase (Bos taurus, UniProt Q2KJ64)
Sequence (Q2KJ64 whole entry): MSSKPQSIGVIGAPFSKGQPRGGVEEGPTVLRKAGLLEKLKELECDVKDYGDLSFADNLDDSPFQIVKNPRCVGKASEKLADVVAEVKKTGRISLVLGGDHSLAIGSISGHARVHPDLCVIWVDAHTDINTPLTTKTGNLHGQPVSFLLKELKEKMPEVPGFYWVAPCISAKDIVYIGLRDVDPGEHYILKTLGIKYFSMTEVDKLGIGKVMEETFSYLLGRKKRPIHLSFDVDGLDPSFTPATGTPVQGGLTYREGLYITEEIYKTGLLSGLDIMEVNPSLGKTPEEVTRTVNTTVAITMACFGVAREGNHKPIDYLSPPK
Assay: Substrate specificity (urea detection), bovine arginase
Format: biochemical
Conditions: 250 mM substrate, 50 mM CHES pH 9.6, 2 mM MnCl2, 37° C., 30 min; mean and SD of triplet reactions
Respond numerically; units are μmol/mg protein/h and should not be typed.

Previously resolved entries follow.
N=C(N)NCCC[C@H](N)C(=O)O	6608
N=C(N)NCCCCN	12
N=C(N)NCCC[C@@H](N)C(=O)O	32

Now for a further compound.
The measured Activity that "N=C(N)NOCC[C@H](N)C(=O)O" showed for Bovine arginase (Bos taurus, UniProt Q2KJ64) is 14
